Give viability at 1000 mol ratio/TPA for every item shown.
Test: Cytotoxicity against human Raji cells assessed as cell viability at 1000 mol ratio/TPA relative to control
Format: cell-based
Conditions: read-out: Activity
One number for each entry, in %.

C=C(C)/C=C/C[C@@H](C)[C@H]1CC[C@@]2(C)[C@@H]3[C@@H](OC)C=C4[C@@H](CC[C@H](O)C4(C)C)[C@]3(C=O)CC[C@]12C    70

Parameter requested: viability at 1000 mol ratio/TPA. Apply to each item below.
1. CO[C@H](C=C(C)C)C[C@@H](C)[C@H]1CC[C@@]2(C)[C@@H]3[C@@H](OC)C=C4[C@@H](CC[C@H](O[C@@H]5O[C@H](CO)[C@@H](O)[C@H](O)[C@H]5O)C4(C)C)[C@]3(C)CC[C@]12C [KARAVILOSIDE I]
2. C=C(C)/C=C/C[C@@H](C)[C@H]1CC[C@@]2(C)[C@@H]3C=C[C@@]45O[C@@H](OC)[C@]3(CC[C@]12C)[C@@H]4CC[C@H](O[C@@H]1O[C@H](CO)[C@@H](O)[C@H](O)[C@H]1O)C5(C)C [CHARANTOSIDE I]
3. COc1cc(/C=C/C(=O)CC(=O)/C=C/c2ccc(O)c(OC)c2)ccc1O

1: 70; 2: 70; 3: 70

Parameter requested: viability at 1000 mol ratio/TPA. Apply to each item below.
1. C=C(C)/C=C/C[C@@H](C)[C@H]1CC[C@@]2(C)[C@@H]3C=C[C@@]45O[C@@H](OC)[C@]3(CC[C@]12C)[C@@H]4CC[C@H](O)C5(C)C
2. CO[C@H](C=C(C)C)C[C@@H](C)[C@H]1CC[C@@]2(C)[C@@H]3C=C[C@@]45OC[C@]3(CC[C@]12C)[C@@H]4CC[C@H](O[C@@H]1O[C@H](CO)[C@@H](O)[C@@H](O)[C@H]1O)C5(C)C [CHARANTOSIDE VI]
3. COC1O[C@]23C=C[C@@H]4[C@@]1(CC[C@]1(C)[C@@H]([C@H](C)C/C=C/C(C)(C)OC)CC[C@@]41C)[C@@H]2CC[C@H](O[C@@H]1O[C@H](CO)[C@@H](O)[C@H](O)[C@H]1O)C3(C)C (some centres undefined) [GOYAGLYCOSIDE C]
4. C=C(C)/C=C/C[C@@H](C)[C@H]1CC[C@@]2(C)[C@@H]3C=C[C@@]45OC[C@]3(CC[C@]12C)[C@@H]4CC[C@H](O[C@@H]1O[C@H](CO)[C@@H](O)[C@H](O)[C@H]1O)C5(C)C [CHARANTOSIDE III]

1. 70
2. 70
3. 70
4. 70

----------
Give level, % of control for every item shown.
Tested on: Raji
Test: Inhibition of TPA-induced Epstein-Barr virus early antigen in Raji cells at 10 mol ratio/TPA relative to control; values are per cent of control
Settings: human gammaherpesvirus 4
Numbers only, in %.

Some compounds with known level, % of control results, for comparison:
C=C(C)/C=C/C[C@@H](C)[C@H]1CC[C@@]2(C)[C@@H]3C=C[C@@]45O[C@@H](OC)[C@]3(CC[C@]12C)[C@@H]4CC[C@H](O)C5(C)C    82.7
C=C(C)/C=C/C[C@@H](C)[C@H]1CC[C@@]2(C)[C@@H]3C=C[C@@]45OC[C@]3(CC[C@]12C)[C@@H]4CC[C@H](O[C@@H]1O[C@H](CO)[C@@H](O)[C@H](O)[C@H]1O)C5(C)C [CHARANTOSIDE III]    100
CO[C@@H]1O[C@]23C=C[C@@H]4[C@@]1(CC[C@]1(C)[C@@H]([C@H](C)C/C=C/C(C)(C)OC)CC[C@@]41C)[C@@H]2CC[C@H](O)C3(C)C    83.9
C=C(C)/C=C/C[C@@H](C)[C@H]1CC[C@@]2(C)[C@@H]3C=C[C@@]45O[C@@H](OC)[C@]3(CC[C@]12C)[C@@H]4CC[C@H](O[C@@H]1O[C@H](CO)[C@@H](O)[C@H](O)[C@H]1O)C5(C)C [CHARANTOSIDE I]    100
CC1(C)[C@@H](O[C@H]2O[C@H](C(=O)O)[C@@H](O)[C@H](O)[C@H]2O[C@@H]2O[C@H](C(=O)O)[C@@H](O)[C@H](O)[C@H]2O)CC[C@]2(C)[C@H]3C(=O)C=C4[C@@H]5C[C@@](C)(C(=O)O)CC[C@]5(C)CC[C@@]4(C)[C@]3(C)CC[C@@H]12 [GLYCYRRHIZIN]    100

Parameter requested: level, % of control. Apply to each item below.
1. COC(C)(C)/C=C/C[C@@H](C)[C@H]1CC[C@@]2(C)[C@@H]3C=C[C@@]45OC[C@]3(CC[C@]12C)[C@@H]4CC[C@H](O[C@@H]1O[C@H](CO)[C@@H](O)[C@H](O)[C@H]1O)C5(C)C [MOMORDICOSIDE F1]
2. CO[C@H]1C=C2[C@@H](CC[C@H](O[C@@H]3O[C@H](CO)[C@@H](O)[C@H](O)[C@H]3O)C2(C)C)[C@]2(C=O)CC[C@]3(C)[C@@H]([C@H](C)C/C=C/C(C)(C)OC)CC[C@@]3(C)[C@H]12 [CHARANTOSIDE VIII]
3. C[C@H](C/C=C/C(C)(C)O)[C@H]1CC[C@@]2(C)[C@@H]3C=C[C@@]45OC[C@]3(CC[C@]12C)[C@@H]4CC[C@H](O[C@@H]1O[C@H](CO)[C@@H](O)[C@@H](O)[C@H]1O)C5(C)C [MOMORDICOSIDE F2]

1: 100; 2: 100; 3: 100

----------
Test: Cytotoxicity against human Raji cells assessed as cell viability at 1000 mol ratio/TPA relative to control
Assay type: cell-based
Details: read-out: Activity
readout_kind: viability at 1000 mol ratio/TPA (%)
Give bare numbers, in %.

COC(C)(C)/C=C/C[C@@H](C)[C@H]1CC[C@@]2(C)[C@@H]3C=C[C@@]45OC[C@]3(CC[C@]12C)[C@@H]4CC[C@H](O[C@@H]1O[C@H](CO)[C@@H](O)[C@H](O)[C@H]1O)C5(C)C [MOMORDICOSIDE F1]    70
C=C(C)/C=C/C[C@@H](C)[C@H]1CC[C@@]2(C)[C@@H]3C=C[C@@]45OC[C@]3(CC[C@]12C)[C@@H]4CC[C@H](O[C@@H]1O[C@H](CO)[C@@H](O)[C@@H](O)[C@H]1O)C5(C)C [CHARANTOSIDE IV]    70

Parameter requested: viability at 1000 mol ratio/TPA. Apply to each item below.
1. CO[C@@H](C=C(C)C)C[C@@H](C)[C@H]1CC[C@@]2(C)[C@@H]3C=C[C@@]45OC[C@]3(CC[C@]12C)[C@@H]4CC[C@H](O[C@@H]1O[C@H](CO)[C@@H](O)[C@H](O)[C@H]1O)C5(C)C [CHARANTOSIDE V]
2. COC1O[C@]23C=C[C@@H]4[C@@]1(CC[C@]1(C)[C@@H]([C@H](C)C/C=C/C(C)(C)OC)CC[C@@]41C)[C@@H]2CC[C@H](O[C@@H]1O[C@H](CO)[C@@H](O)[C@@H](O)[C@H]1O)C3(C)C (some centres not stated) [GOYAGLYCOSIDE D]
3. CO[C@@H]1O[C@]23C=C[C@@H]4[C@@]1(CC[C@]1(C)[C@@H]([C@H](C)C/C=C/C(C)(C)OC)CC[C@@]41C)[C@@H]2CC[C@H](O)C3(C)C
4. CO[C@H]1C=C2[C@@H](CC[C@H](O)C2(C)C)[C@]2(C=O)CC[C@]3(C)[C@@H]([C@H](C)C/C=C/C(C)(C)OC)CC[C@@]3(C)[C@H]12
5. C[C@H](C/C=C/C(C)(C)O)[C@H]1CC[C@@]2(C)[C@@H]3C=C[C@@]45OC[C@]3(CC[C@]12C)[C@@H]4CC[C@H](O[C@@H]1O[C@H](CO)[C@@H](O)[C@@H](O)[C@H]1O)C5(C)C [MOMORDICOSIDE F2]

1. 70
2. 70
3. 70
4. 70
5. 70

----------
System: Raji
Experiment: Inhibition of TPA-induced Epstein-Barr virus early antigen in Raji cells at 10 mol ratio/TPA relative to control; values are per cent of control
Settings: human gammaherpesvirus 4
readout_kind: level, % of control (%)
Answers are plain numbers, in %.

COC1O[C@]23C=C[C@@H]4[C@@]1(CC[C@]1(C)[C@@H]([C@H](C)C/C=C/C(C)(C)OC)CC[C@@]41C)[C@@H]2CC[C@H](O[C@@H]1O[C@H](CO)[C@@H](O)[C@@H](O)[C@H]1O)C3(C)C (stereo partly drawn) [GOYAGLYCOSIDE D]    100
C=C(C)/C=C/C[C@@H](C)[C@H]1CC[C@@]2(C)[C@@H]3C=C[C@@]45OC(=O)[C@]3(CC[C@]12C)[C@@H]4CC[C@H](O[C@@H]1O[C@H](CO)[C@@H](O)[C@H](O)[C@H]1O)C5(C)C [CHARANTOSIDE VII]    100
CO[C@@H]1O[C@]23C=C[C@@H]4[C@@]1(CC[C@]1(C)[C@@H]([C@H](C)C[C@H](C=C(C)C)OC)CC[C@@]41C)[C@@H]2CC[C@H](O[C@@H]1O[C@H](CO)[C@@H](O)[C@@H](O)[C@H]1O)C3(C)C [CHARANTOSIDE II]    100
CO[C@@H](C=C(C)C)C[C@@H](C)[C@H]1CC[C@@]2(C)[C@@H]3C=C[C@@]45OC[C@]3(CC[C@]12C)[C@@H]4CC[C@H](O[C@@H]1O[C@H](CO)[C@@H](O)[C@H](O)[C@H]1O)C5(C)C [CHARANTOSIDE V]    100

Parameter requested: level, % of control. Apply to each item below.
1. COC1O[C@]23C=C[C@@H]4[C@@]1(CC[C@]1(C)[C@@H]([C@H](C)C/C=C/C(C)(C)O)CC[C@@]41C)[C@@H]2CC[C@H](O)C3(C)C (stereo partly drawn)
2. C=C(C)/C=C/C[C@@H](C)[C@H]1CC[C@@]2(C)[C@@H]3C=C[C@@]45OC[C@]3(CC[C@]12C)[C@@H]4CC[C@H](O[C@@H]1O[C@H](CO)[C@@H](O)[C@@H](O)[C@H]1O)C5(C)C [CHARANTOSIDE IV]
3. C=C(C)/C=C/C[C@@H](C)[C@H]1CC[C@@]2(C)[C@@H]3[C@@H](OC)C=C4[C@@H](CC[C@H](O)C4(C)C)[C@]3(C=O)CC[C@]12C
4. CO[C@H](C=C(C)C)C[C@@H](C)[C@H]1CC[C@@]2(C)[C@@H]3C=C[C@@]45OC[C@]3(CC[C@]12C)[C@@H]4CC[C@H](O[C@@H]1O[C@H](CO)[C@@H](O)[C@@H](O)[C@H]1O)C5(C)C [CHARANTOSIDE VI]
5. COc1cc(/C=C/C(=O)CC(=O)/C=C/c2ccc(O)c(OC)c2)ccc1O [CURCUMIN]
6. CC1=C(/C=C/C(C)=C/C=C/C(C)=C/C=C/C=C(C)/C=C/C=C(C)/C=C/C2=C(C)CCCC2(C)C)C(C)(C)CCC1
7. CO[C@H]1C=C2[C@@H](CC[C@H](O)C2(C)C)[C@]2(C=O)CC[C@]3(C)[C@@H]([C@H](C)C/C=C/C(C)(C)OC)CC[C@@]3(C)[C@H]12
8. COC1O[C@]23C=C[C@@H]4[C@@]1(CC[C@]1(C)[C@@H]([C@H](C)C/C=C/C(C)(C)OC)CC[C@@]41C)[C@@H]2CC[C@H](O[C@@H]1O[C@H](CO)[C@@H](O)[C@H](O)[C@H]1O)C3(C)C (stereo partly drawn) [GOYAGLYCOSIDE C]

[94.5, 100, 95.3, 100, 100, 100, 97.3, 100]

Measured level, % of control, CO[C@H](C=C(C)C)C[C@@H](C)[C@H]1CC[C@@]2(C)[C@@H]3[C@@H](OC)C=C4[C@@H](CC[C@H](O[C@@H]5O[C@H](CO)[C@@H](O)[C@H](O)[C@H]5O)C4(C)C)[C@]3(C)CC[C@]12C [KARAVILOSIDE I] : 100
